- protocol.summary: NCI Yeast Anticancer Drug Screen. Data for the mec2-1 strain (AID 157)
- protocol.conditions: S. cerevisiae mec2-1 strain, at 5.0 µM (retest, dose inferred, filed as 0.5), hits give high values
This is part of a sample that, as a whole, favours compounds with a hit. Of some 79,000 tested, about 15% had one in any assay.
Consider the following molecules; for each one, report its growth inhibition.
// return numeric value only (unit: %, not printed)

Consider the molecule CC[Si](CC)(CC)c1ccc(CCNCCS)s1 and give its measured growth inhibition. 32

Consider the molecule COC1OC(CBr)C(OC(c2ccccc2)(c2ccccc2)c2ccccc2)C(OC(c2ccccc2)(c2ccccc2)c2ccccc2)C1OC(c1ccccc1)(c1ccccc1)c1ccccc1 (stereo not drawn) and give its measured growth inhibition. -12

Consider the molecule CSC(=Nc1ccccc1)NC(=O)Nc1ccc(Cl)cc1 and give its measured growth inhibition. 5

Consider the molecule CC(=O)OC1CCCCCCCCCCC12OCCO2 (stereo not drawn) and give its measured growth inhibition. 5

Consider the molecule C/C(=N\OC(=O)c1ccccc1)[N+](=O)[O-] and give its measured growth inhibition. -6

Consider the molecule NC(=Nc1cc2ccccc2c2ccccc12)Nc1cc2ccccc2c2ccccc12 and give its measured growth inhibition. 91

Consider the molecule CC(C)(N)COB(c1ccccc1)c1ccccc1 and give its measured growth inhibition. -5

Consider the molecule COc1ccc2c(c1)C1(C)CCCC(C)(C(=O)O)C1C(Br)C2=O (stereo not drawn) and give its measured growth inhibition. 20

Consider the molecule C=Cc1cc(=O)oc2cc(OC)ccc12 and give its measured growth inhibition. 22

Consider the molecule Cc1ccc(-n2cc(-c3ccc(Cl)cc3)c3c(NN)ncnc32)cc1 and give its measured growth inhibition. -11

Consider the molecule Cc1[nH]c2ccccc2c1SCc1ccccc1 and give its measured growth inhibition. 2

Consider the molecule Nc1ncnc2c1c(-c1ccccc1)cn2-c1ccc(Br)cc1 and give its measured growth inhibition. 16

Consider the molecule CC(C)C1=CC23CCC4C(C)(C(=O)O)CCCC4(C)C2CC1CC3C#N (stereo not drawn) and give its measured growth inhibition. 18

Consider the molecule Nc1nc(-c2ccccc2)c(N=Nc2c(Cl)cccc2Cl)s1 and give its measured growth inhibition. 21

Consider the molecule O=C(/C(=N/O)[n+]1ccccc1)c1ccccc1 and give its measured growth inhibition. -3

Consider the molecule N#CCC(=O)N/N=C(/CC1(O)C(=O)Nc2c(Cl)cc(Cl)cc21)c1ccccc1 (stereo not drawn) and give its measured growth inhibition. 10

Consider the molecule COc1cc2c(c(C3C(=O)N(C)c4ccc(Br)cc43)c1OC)OCO2 (stereo not drawn) and give its measured growth inhibition. 2

Consider the molecule O=C1C(c2ccc(Br)cc2)=[N+]([O-])c2ccccc21 and give its measured growth inhibition. 12

Consider the molecule CCCCCCCCCCCCNC(=O)c1cc[n+](Cc2ccc(Cl)c(Cl)c2)cc1 and give its measured growth inhibition. 100

Consider the molecule CN(Cc1ccccc1)CC(O)c1cc(-c2ccc(Cl)cc2)nc2ccccc12 (stereo not drawn) and give its measured growth inhibition. 2

Consider the molecule Cc1ccc2c(n1)C(=O)C=CC2=O and give its measured growth inhibition. 5

Consider the molecule CCCCCCCCCCCCCC(=O)CC(=O)c1c(O)cccc1O and give its measured growth inhibition. -3

Consider the molecule COc1cccc2c1[n+]([O-])c1cccc(O)c1[n+]2[O-] and give its measured growth inhibition. 99

----------
- protocol.summary: NCI Yeast Anticancer Drug Screen. Data for the mec2-1 strain (AID 157)
- protocol.conditions: S. cerevisiae mec2-1 strain, at 5.0 µM (retest, dose inferred, filed as 0.5), hits give high values
The panel holds about 79,000 compounds, 15% with a hit somewhere; the sample as a whole holds those more often.
Consider the following compounds; for each one, report its growth inhibition.
// return numeric value only (unit: %, not printed)

Consider the compound CCN(CC)CCNc1ccc2nnn3c4ccccc4c(=O)c1c23 and give its measured growth inhibition. -31

Consider the compound C=CCc1cc(C(=O)OCC)cc(OC)c1O and give its measured growth inhibition. 22

Consider the compound CC1CCCC(C(O)(C(=O)O)C2CCCC(C)C2)C1 (stereo unspecified) and give its measured growth inhibition. 29

Consider the compound CC(=O)Nc1ccc2c(c1)Cc1cccc(F)c1-2 and give its measured growth inhibition. 6

Consider the compound Cc1cc(C)[nH]c(=S)n1.[Pt] and give its measured growth inhibition. 0

Consider the compound N#C/C(=C\NC(=S)C(N)=S)c1nc2ccccc2s1 and give its measured growth inhibition. 28

Consider the compound O=C(Nc1ccccc1-c1nn(CN2CCNCC2)c(=S)n(CN2CCNCC2)c1=O)C(F)(F)F and give its measured growth inhibition. 0

Consider the compound C/C(=N/NC(N)=S)C(CN(C)C)C(C1=C(O)c2ccccc2OC1)c1ccccc1 (stereo unspecified) and give its measured growth inhibition. 2

Consider the compound O=S(=O)(CCNCCCCC1CCCCC1)SCCNCCCCC1CCCCC1 and give its measured growth inhibition. 3

Consider the compound CCCCCCCCCCCCCCCC(=O)N1CCOCC1 and give its measured growth inhibition. -5

Consider the compound CS(C)=O.[Cl-].[Cl-].[NH-]CC(O)CN(Cc1ccccc1)CC(O)CN.[Pt] (stereo unspecified) and give its measured growth inhibition. 18

Source listed as PubChem BioAssay (NCI).
